assay: Pharmacokinetic study, plasma; format: in vivo; settings: male, C57BL/6, mouse, plasma, po, 20 mg/kg, male C57BL/6 mice, 0.167 hr, read-out: plasma Concentration, Individuals
readoutName: concentration at 0.167 hr (µg/mL)
One number for each entry, in µg/mL.

INSERT INTO measurements (compound, measurednumber) VALUES
  ('CNC(=O)c1ncn2c(=O)n(CCF)nnc12 [Compound I-1]', 11.3);

# ---- query compound ----
Form field: reported concentration at 0.167 hr of NC(=O)c1ncn2c(=O)n(CCF)nnc12 [KL-50]
24.5

###

Would you mind telling me the reported concentration at 0.333 hr of each entry?
Assay: Pharmacokinetic study, plasma
Format: in vivo
Details: male, C57BL/6, mouse, plasma, po, 20 mg/kg, male C57BL/6 mice, 0.333 hr, read-out: plasma Concentration, Individuals
Protocol: Compound KL50 dosing solution: 3.39% DMSO+96.61% (10% HP-β-CD in saline) at 2 mg/mL; • 1) Weigh 17.39 mg of compound KL50 into a clean tube. • 2) Add 0.295 mL DMSO into the tube containing the compound. • 3) Vortex the tube for 3 min and sonicate it for 4 min. • 4) Add 8.400 mL 10% HP-β-CD in saline into the tube and vortex the tube for 3 min. […]
Answers are plain numbers, in ng/mL.

INSERT INTO measurements (molecule, readoutname, measurednumber) VALUES
  ('NC(=O)c1ncn2c(=O)n(CCF)nnc12 [KL-50]', 'concentration at 0.333 hr', 19000);

Data request, read-out concentration at 0.333 hr, for CNC(=O)c1ncn2c(=O)n(CCF)nnc12 [Compound I-1]
8830

Where do these numbers come from? They come from patent US20240400572A1.
